molecular target: Human MMP13 (human, UniProt P45452 20-471, limits assumed); experiment: celTRF and Octet QK cross-reactivity
measured.metric: binding result

[[record]]
binder = "3A12.1D7 (antibody, V domains shown, Murine monoclonal antibody from a hybridoma) VH: EVKFEESGGGLVQPGGSMKLSCAASGFIFSDAWMDWVRQSPEKGLEWVAEIRHKANDYAIFYDESVKGRFTISRDDSKSIVYLQMNNLRPEDTGIYYCTSPFAYWGQGTLVTVSA VL: DIVMTQSQKFMSVTVGDRVSITCKASQSVGTTIVWYQQKPGQSPKLLIYSASNRHTGVPDRFTGSGSGTDFILTISNVQSEDLADYFCQQYSSYPFTFGSGTKLEIKR"
measurement = "no binding"

[[record]]
binder = "5F10.1H6 (antibody, V domains shown, Murine monoclonal antibody from a hybridoma) VH: EVKLEESGGGLVQPGGSMKLSCAASGFTFSDAWMDWVRQSPEKGLEWVAEIRHKANDHAIFYDESVKGRFTISRDDSKSIVYLQMNSLRPEDTGIYYCTSPFAYWGQGTLVTVSA VL: DIVMTQSQRFMSVTVGDRVSITCKASQSVGTTIVWYQQKPGQSPKLLIYSASTRYTGVPDRFTGGGSGTDFILTINNVQSEDLADYFCQQYSSYPFTFGSGTKLEIKR"
measurement = "no binding"

